# EXPERIMENTAL PROTOCOL: Pharmacokinetics after oral and intravenous administration
# Format: in vivo, mice (CD-1)
# STUDY CONDITIONS: female, CD-1, plasma, 50 mg/kg; Mouse, Dose PO/IV 50/15 mg/kg
PROPERTY: Cmax
Just so you know, I need the unit written after the number.

Input: Value lookup for Cmax; key = "CC(C)n1c(C2CCNCC2)nc2c([N+](=O)[O-])c(Br)c(Br)cc21"
Output: 2180 ng/mL

---

# EXPERIMENTAL PROTOCOL: Pharmacokinetics after oral and intravenous administration
# Type: in vivo, dogs (Beagle)
# STUDY CONDITIONS: male, Beagle, plasma, 5 mg/kg; Dog, Dose PO/IV 5/1 mg/kg; read-out: F (bioavailability)
PROPERTY: bioavailability (%)
Answer format: numeric, % implied, no suffix.

Input: bioavailability lookup needed for CC(C)n1c(C2CCNCC2)nc2c([N+](=O)[O-])c(Br)c(Br)cc21 [SEL24-B489] , thanks.
Output: 47

---

# EXPERIMENTAL PROTOCOL: Pharmacokinetics after oral and intravenous administration
# Type: in vivo, dogs (Beagle)
# STUDY CONDITIONS: male, Beagle, plasma, 5 mg/kg; Dog, Dose PO/IV 5/1 mg/kg
PROPERTY: Cmax

Input: Record request: Cmax value, item "CC(C)n1c(C2CCNCC2)nc2c([N+](=O)[O-])c(Br)c(Br)cc21"
Output: 155 ng/mL

---

# Tested on: MOLM-13
# EXPERIMENTAL PROTOCOL: MTS viability assay, 72 h
# STUDY CONDITIONS: read-out: LC50; MOLM-13, 72 h; 50% death relative to T0
PROPERTY: CC50

Input: What does the record list as CC50 for "N[C@@H]1CCCN(c2c(/C=C3\SC(=O)NC3=O)cccc2-c2ccccc2)C1" ?
Output: > 10 µM

---

# SYSTEM: FLT3 (D835V) (Homo sapiens, UniProt P36888, D835V)
# EXPERIMENTAL PROTOCOL: KINOMEscan Kd, specific screen against FLT3 mutants
PROPERTY: pKd
Please keep in mind that pKd is minus log10 of the molar concentration; only the number is needed.

Input: Look up pKd with FLT3 (D835V) (Homo sapiens, UniProt P36888, D835V) for this compound: "CC(C)n1c(C2CCNCC2)nc2c([N+](=O)[O-])c(Br)c(Br)cc21"
Output: 7.96

---

# EXPERIMENTAL PROTOCOL: Pharmacokinetics after oral and intravenous administration
# Assay type: in vivo, mice (CD-1)
# STUDY CONDITIONS: female, CD-1, plasma; Mouse, Dose PO/IV 50/15 mg/kg
PROPERTY: AUC(0-t) (ng·h/mL)
State the answer as a number, implicitly in ng·h/mL.

Input: Item "CC(C)n1c(C2CCNCC2)nc2c([N+](=O)[O-])c(Br)c(Br)cc21" has what recorded AUC(0-t)?
Output: 26200

---

# SYSTEM: CYP3A4 (Homo sapiens)
# Construct: Cambridge Bioscience Limited (ran the assay)
# Sequence (P08684 whole entry): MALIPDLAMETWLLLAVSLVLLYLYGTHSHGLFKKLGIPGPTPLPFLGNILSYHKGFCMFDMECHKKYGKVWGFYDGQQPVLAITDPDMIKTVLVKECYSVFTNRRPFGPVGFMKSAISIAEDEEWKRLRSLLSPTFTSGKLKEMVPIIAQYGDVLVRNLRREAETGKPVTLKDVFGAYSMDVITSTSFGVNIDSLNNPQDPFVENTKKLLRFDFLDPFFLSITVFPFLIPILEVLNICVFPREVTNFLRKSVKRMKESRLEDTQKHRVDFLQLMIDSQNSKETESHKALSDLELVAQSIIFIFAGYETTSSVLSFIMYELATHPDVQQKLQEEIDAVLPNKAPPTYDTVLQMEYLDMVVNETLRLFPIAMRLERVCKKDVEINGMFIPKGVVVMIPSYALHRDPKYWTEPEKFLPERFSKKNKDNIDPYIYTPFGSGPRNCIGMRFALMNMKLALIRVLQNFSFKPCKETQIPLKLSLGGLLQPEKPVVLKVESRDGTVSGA
# EXPERIMENTAL PROTOCOL: CYP isoforms inhibition
# STUDY CONDITIONS: 5-dose, 3-fold dilution starting at 30 µM
PROPERTY: IC50

Input: Using the record for CC(C)n1c(C2CCNCC2)nc2c([N+](=O)[O-])c(Br)c(Br)cc21 [SEL24-B489] , report its IC50.
Output: > 100 µM
